Tested on: SEM cells
Assay: cell viability relative to DMSO control; higher = less cytotoxic
Details: RPMI 5 mM glucose + 10% FBS; 48 h; 46.1 µM
// NB: equality with 40% counts as NO; only cell viability strictly below is YES

Req: Quick check: does `CNC(=O)c1ccc(-c2cnc3ncc(Cc4ccc5ncccc5c4)n3n2)cc1F` have cell viability under 40%?
Resp: NO

Req: Consider `Cc1ccc(NC(=O)c2ccc(CN3CCN(C)CC3)cc2)cc1Nc1nc(-c2cccnc2)cs1` . Does its cell viability lie strictly below 40%?
Resp: YES

Req: Problem: For the compound `C/C=C(/C)C(=O)O[C@H]1C(C)=C2[C@H]([C@@H]1OC(=O)CCCCCCC)[C@@](C)(OC(C)=O)C[C@H](OC(=O)CCC)[C@@]1(O)[C@H]2OC(=O)[C@@]1(C)O` , is cell viability under 40%?
Resp: YES

Req: Determine whether this compound shows cell viability lower than 40% (ties excluded): CCC(C)SSc1ncc[nH]1 (configuration not stated)
Resp: YES

Req: Hello, I'm reviewing records and need to know if cell viability of `CCCCCCCCCCCCCCCCCCCCCCO` is below 40%. Could you check?
Resp: NO

Req: Please let me know if COC[C@H]1OC(=O)C2=COC3=C2[C@@]1(C)\C4=C(C5CCC(=O)[C@@]5(C)C[C@H]4OC(C)=O)/C3=O (some centres not stated) shows cell viability below 40%.
Resp: NO

Req: is_below(cell viability, 40%) for `CC(=O)Nc1ccc(OC[C@](C)(O)C(=O)Nc2ccc([N+](=O)[O-])c(C(F)(F)F)c2)cc1` ?
Resp: NO

Req: Does the reported cell viability of the following compound sit strictly below 40%? `Oc1ccc2c3c1O[C@H]1c4[nH]c5c(c4C[C@@]4(O)[C@@H](C2)N(CC2CC2)CC[C@]314)C[C@@]1(O)[C@H]2Cc3ccc(O)c4c3[C@@]1(CCN2CC1CC1)[C@H]5O4`
Resp: NO

Req: Please determine if CC(N[C@H]1C[C@@H]1c1ccccc1)c1ccc2c(c1)OCCO2 (some centres not stated) is below 40% in terms of cell viability.
Resp: NO

Req: Given `CC/1=C/C(=O)N(O)/C(=C1)C2CCCCC2` , is recorded cell viability strictly lower than 40%?
Resp: YES

Req: Decide: cell viability of `CCc1cncnc1N1CCN(Cc2nc3cc(C(F)(F)F)ccc3[nH]2)CC1` strictly below 40%?
Resp: YES

Req: Is 40% strictly greater than the compound's reported cell viability? compound: `OC[C@H]1O[C@@H](O[C@@H]2[C@@H](CO)O[C@](O)(CO)[C@H]2O)[C@H](O)[C@@H](O)[C@H]1O`
Resp: NO

Req: Hello, I'm reviewing records and need to know if cell viability of `CN(CC#C)C/C1=C/C2=CC=CC=C2OC3=CC=CC=C13` is below 40%. Could you check?
Resp: NO

Req: Please let me know if `C#Cc1cccc(Nc2ncnc3cc(OCCOC)c(OCCOC)cc23)c1` shows cell viability below 40%.
Resp: YES

Req: Consider CC1CCC(C(=O)N(c2cc(C#CC(C)(C)C)sc2C(=O)O)C2CCC(O)CC2)CC1 (configuration not stated) . Does its cell viability lie strictly below 40%?
Resp: NO

Req: Does the reported cell viability of the following compound sit strictly below 40%? CCN(CC)CC#CCOC(=O)C(O)(c1ccccc1)C1CCCCC1 (configuration not stated)
Resp: NO

Req: For `COc1c(C)cnc(Cn2cnc3c(Cl)nc(N)nc32)c1C` , is the recorded cell viability below the cut-off of 40%?
Resp: YES

Req: is_below(cell viability, 40%) for `C[C@H](NC(=O)/C(C#N)=C/c1cccc(Br)n1)c1ccccc1` ?
Resp: YES

Req: Strictly below 40%: is that where cell viability of `OC1=C(O)C2=C(\C=C/C(=O)O2)C=C1` sits?
Resp: YES

Req: Item `O=C(NCC[S+](=O)([O-])c1ccc(C(F)(F)F)cn1)c1ccc(Cl)cc1` : cell viability beneath 40%, strictly?
Resp: NO

Req: Bench note: check whether COc1cc2nc(N(C)CCCNC(=O)C3CCCO3)nc(N)c2cc1OC (configuration not stated) shows cell viability below 40%
Resp: NO

Req: Regarding `CC\1=C/C=C\C=[N]1[Pt](N)(Cl)Cl` , kindly confirm whether its cell viability is beneath 40%.
Resp: NO

Req: Lab note: cell viability threshold 40%. Does this compound come in strictly under it? `CC1=CC=CC=C1N2\C(=N/C3=C(C(=CC=C3)C)C2=O)C[N]4C=NC5=C4N=CN=C5N`
Resp: YES

Req: Confirm or reject: cell viability of `N=C(CCSCc1csc(N=C(N)N)n1)N[S+](N)(=O)[O-]` lies strictly below 40%
Resp: NO

Req: Does `NC(=O)c1cnc(N[C@@H]2CCCC[C@@H]2N)nc1Nc1cccc(-n2nccn2)c1` have cell viability strictly under 40%?
Resp: YES

Req: State whether 40% exceeds cell viability recorded for CN(C)CCOc1cc(-c2cn[nH]c2)ccc1NC(=O)C1COc2ccccc2O1 (configuration not stated) .
Resp: NO

Req: Check if cell viability falls below 40% for `CC(C)OC(=O)OCOP(=O)(CO[C@H](C)Cn1cnc2c(N)ncnc21)OCOC(=O)OC(C)C.O=C(O)C=CC(=O)O` .
Resp: NO

Req: Regarding `CC/C(=C(/c1ccc(O)cc1)c1ccc(OCCNC)cc1)c1ccccc1` , kindly confirm whether its cell viability is beneath 40%.
Resp: YES

Req: I'd appreciate it if you could check whether `COc1ccc(C[C@@H](C)[C@@H](C)Cc2ccc(OC)c(OC)c2)cc1OC` has cell viability smaller than 40%.
Resp: YES

Req: Record C[C@]\12CC[C@H](O)CC1=C/CC3C2CC[C@@]\4(C)C3C\C=C4[N]5C=NC6=C5C=CC=C6 (some centres not stated) : is its cell viability strictly below 40%?
Resp: NO

Req: Determine if CN1[C@@H]2CC(OC(=O)[C@@H](CO)c3ccccc3)C[C@H]1[C@H]1O[C@H]12 (some centres not stated) shows cell viability strictly lower than 40%.
Resp: NO
